Catalogue of pKi values
# TEST DETAILS: Displacement of [3H]prazosin from adrenergic alpha1 receptor in ICR mouse brain homogenate
# Type: tissue-based
In simple prose, pKi is minus the logarithm base ten of a concentration in moles per litre.

Some entries whose results are on file:
MOLECULE: Cc1ccc(N2CCN(C[C@H]3C[C@@H]3c3ccccc3)CC2)c(C)c1
pKi: 6.36
//
MOLECULE: Cc1ccc(N2CCN([C@H](C)[C@H]3C[C@]3(C)c3ccccc3)CC2)c(C)c1
pKi: 6.40

Data request: Given the entry Cc1ccc(N2CCN(C[C@@H]3C[C@@H]3c3ccccc3)CC2)c(C)c1 , report its measured pKi.
Data returned: 6.27

Data request: Fill blank: measured pKi of the molecule Cc1ccc(N2CCN(C[C@H]3C[C@]3(C)c3ccccc3)CC2)c(C)c1 is ____.
Data returned: 6.04

Data request: # lookup: pKi of Cc1ccc(N2CCN(C[C@H]3C[C@H]3c3ccccc3)CC2)c(C)c1
Data returned: 6.28

Data request: Consider the molecule Cc1ccc(N2CCN([C@@H](C)[C@H]3C[C@]3(C)c3ccccc3)CC2)c(C)c1 and give its measured pKi.
Data returned: 6.60

* * *

# TGT: D(2) dopamine receptor (Homo sapiens)
# Sequence (P14416 whole entry): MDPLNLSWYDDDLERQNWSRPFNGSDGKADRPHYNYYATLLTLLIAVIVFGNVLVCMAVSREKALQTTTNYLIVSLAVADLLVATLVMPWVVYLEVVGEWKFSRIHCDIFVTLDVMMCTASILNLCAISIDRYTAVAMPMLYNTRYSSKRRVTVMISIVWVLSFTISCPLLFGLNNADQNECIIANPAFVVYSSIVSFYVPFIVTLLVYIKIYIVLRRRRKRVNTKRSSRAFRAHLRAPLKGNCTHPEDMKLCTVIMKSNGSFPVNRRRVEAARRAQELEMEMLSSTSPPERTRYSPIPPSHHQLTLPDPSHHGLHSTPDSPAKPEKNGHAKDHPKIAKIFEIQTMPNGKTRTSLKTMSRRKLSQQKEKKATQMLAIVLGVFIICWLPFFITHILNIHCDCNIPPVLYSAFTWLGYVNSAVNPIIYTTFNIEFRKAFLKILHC
pKi: −log10 of the molar value.
OBSERVATION TYPE: pKi

Data request: Notebook: pull reported pKi for D(2) dopamine receptor (Homo sapiens), entry Cc1ccc(N2CCN(C[C@H]3C[C@]3(C)c3ccccc3)CC2)c(C)c1
Data returned: < 5.00

* * *

List of Ki values.
# TEST DETAILS: Displacement of [3H]YM-09151-2 from human dopamine D4.2 receptor in membrane suspensions by liquid scintillation counter
Write the answer as a number in nM, unit excluded.

MOLECULE: Cc1ccc(N2CCN(C[C@H]3C[C@H]3c3ccccc3)CC2)c(C)c1
Ki / nM: 897
//
MOLECULE: Cc1ccc(N2CCN([C@@H](C)[C@H]3C[C@]3(C)c3ccccc3)CC2)c(C)c1
Ki / nM: 4190

Data request: Which Ki reading was recorded for the molecule Cc1ccc(N2CCN(C[C@H]3C[C@@H]3c3ccccc3)CC2)c(C)c1 ?
Data returned: 130

Data request: Field request: Ki | item: Cc1ccc(N2CCN([C@H](C)[C@H]3C[C@]3(C)c3ccccc3)CC2)c(C)c1
Data returned: 4660

* * *

# TEST DETAILS: Displacement of [3H]YM-09151-2 from human dopamine D4.2 receptor in membrane suspensions by liquid scintillation counter
OBSERVATION TYPE: Ki (nM)
The answer is to be given in nM; state only the numeric part.

Data request: Which Ki is listed for Cc1ccc(N2CCN(C[C@H]3C[C@]3(C)c3ccccc3)CC2)c(C)c1 ?
Data returned: 236

Data request: Suppose we examine the molecule O=C(CCCN1CCC(O)(c2ccc(Cl)cc2)CC1)c1ccc(F)cc1 ; what Ki value has been reported?
Data returned: 9.32

Data request: Looking for the measured Ki of Cc1ccc(N2CCN(C[C@@H]3C[C@@H]3c3ccccc3)CC2)c(C)c1 , can you help?
Data returned: 2050
